Recorded values, source the supplement of paper PMC7125110.

Measured kcat of individual entries
B1: glmS ribozyme (parent)
chain: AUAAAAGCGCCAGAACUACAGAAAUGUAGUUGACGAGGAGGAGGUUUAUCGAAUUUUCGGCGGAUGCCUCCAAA

- Variants of: B1
- Experimental protocol: kcat; higher = faster cleavage; RNA array
- Assay context: with glucosamine-6-phosphate
Variants at the floor of the assay were thinned out.

# Variant label, kcat
data = [
    ("C50G G59C", "4e-05 s⁻¹"),
    ("A48G A53G", "0.00014 s⁻¹"),
    ("C61G U69G", "1.73e-05 s⁻¹"),
    ("A12U A39C U56G", "0.00242 s⁻¹"),
    ("A52U C67A", "0.000206 s⁻¹"),
    ("G37C A64G", "9.23e-05 s⁻¹"),
    ("A39U G66C", "0.0109 s⁻¹"),
    ("U45G A48U", "0.000351 s⁻¹"),
    ("G59A U65C", "1.55e-05 s⁻¹"),
    ("A15U G40A", "0.000675 s⁻¹"),
    ("U56C G66A", "0.00312 s⁻¹"),
    ("U30G U69A", "8.59e-05 s⁻¹"),
    ("C34G C67A", "1.49e-05 s⁻¹"),
    ("C58G C61G", "3.21e-05 s⁻¹"),
    ("G29C U65G", "0.00083 s⁻¹"),
    ("U31A C67U", "0.00291 s⁻¹"),
    ("A6U U31A", "0.000122 s⁻¹"),
    ("A12U A42C", "2.16e-05 s⁻¹"),
    ("A15G C58G", "0.00042 s⁻¹"),
    ("G43U C67G", "0.00171 s⁻¹"),
    ("A36C C50G G51A", "< 1e-05 s⁻¹"),
    ("A39C U56G", "0.00414 s⁻¹"),
    ("A12C C70U C71U", "0.000174 s⁻¹"),
    ("U47G A53C", "0.00406 s⁻¹"),
    ("A42G U47C", "0.00858 s⁻¹"),
    ("A33U G66C", "1.44e-05 s⁻¹"),
    ("A52G C67G", "0.000104 s⁻¹"),
    ("A48U U55A U56C", "4.34e-05 s⁻¹"),
    ("A42U A53C", "0.000148 s⁻¹"),
    ("A14C A52U", "8.73e-05 s⁻¹"),
    ("G40A U55G", "0.00116 s⁻¹"),
    ("A12U A14C", "0.00505 s⁻¹"),
    ("G40U A52U", "0.000102 s⁻¹"),
    ("C67G C68U", "7.04e-05 s⁻¹"),
    ("G29U U47G", "0.000866 s⁻¹"),
    ("C16G U56C", "0.000431 s⁻¹"),
    ("A14G A36G", "4.89e-05 s⁻¹"),
    ("U65A G66A C67G C71U", "8.39e-05 s⁻¹"),
    ("G29U C61G", "3.41e-05 s⁻¹"),
    ("C11A G37U", "1.35e-05 s⁻¹"),
    ("U55C G60U", "1.04e-05 s⁻¹"),
    ("U31A U45G", "0.0028 s⁻¹"),
    ("A15G G43U", "4.47e-05 s⁻¹"),
    ("A33U C71A", "4.74e-05 s⁻¹"),
    ("C11G G66A", "< 1e-05 s⁻¹"),
    ("C10G U46A", "< 1e-05 s⁻¹"),
]
